# testSummary: in vivo
# measurementContext: rat, plasma, intravenous, 20 nmol/kg
attributeMeasured: AUC(0-inf) (µM·h)

1. CCCCCC(=O)N[C@H]1CSCc2cc(CSCCNC(=O)CN3CCN(CC(=O)O)CCN(CC(=O)O)CCN(CC(=O)O)CC3)cc(c2)CSC[C@@H](C(=O)O)NC(=O)[C@H](Cc2ccccc2)NC(=O)[C@H](CCC(N)=O)NC(=O)[C@H]([C@@H](C)O)NC(=O)[C@@H]2CCCN2C(=O)[C@@H]2CCCN2C1=O : 0.069

###

# experimentalSystem: Human recombinant FAP (Homo sapiens, UniProt Q12884)
# Sequence (Q12884 whole entry): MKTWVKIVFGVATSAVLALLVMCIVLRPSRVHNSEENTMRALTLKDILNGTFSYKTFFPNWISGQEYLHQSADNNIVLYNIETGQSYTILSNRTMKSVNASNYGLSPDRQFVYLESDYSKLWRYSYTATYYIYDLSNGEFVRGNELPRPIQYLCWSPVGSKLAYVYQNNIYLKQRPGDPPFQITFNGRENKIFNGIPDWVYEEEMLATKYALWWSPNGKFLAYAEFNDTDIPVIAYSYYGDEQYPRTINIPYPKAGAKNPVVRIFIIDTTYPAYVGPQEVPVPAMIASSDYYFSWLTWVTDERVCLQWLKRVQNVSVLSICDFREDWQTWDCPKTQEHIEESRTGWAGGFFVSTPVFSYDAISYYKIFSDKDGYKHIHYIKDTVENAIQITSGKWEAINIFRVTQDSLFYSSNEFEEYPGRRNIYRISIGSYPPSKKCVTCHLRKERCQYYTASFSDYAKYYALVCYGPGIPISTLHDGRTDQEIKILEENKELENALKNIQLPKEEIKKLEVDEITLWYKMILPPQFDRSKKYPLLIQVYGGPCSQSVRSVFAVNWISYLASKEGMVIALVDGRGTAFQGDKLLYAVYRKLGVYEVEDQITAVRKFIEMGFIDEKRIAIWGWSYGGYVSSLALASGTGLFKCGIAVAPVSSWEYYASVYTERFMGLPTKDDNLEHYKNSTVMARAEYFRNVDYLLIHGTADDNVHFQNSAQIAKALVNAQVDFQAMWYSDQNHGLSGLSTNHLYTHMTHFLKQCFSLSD
# testSummary: FRET-based FAP protease activity assay
# Format: biochemical
# Parameters: purchased R&D systems 3715-SE
# measurementContext: pIC50 Category (Activity), FRET substrate, 37° C.
pIC50: −log10 of the molar value. Numbered stars: 1 amine (or outer) side, 2 acyl side, 3 side chain; on linkers, the order of the positions; unused ones are H or OH. Bridge positions count the residues as written; N and C are the ends. Peptide text beside a SMILES is read from it. * marks the point of attachment. X5 = O=C(O)CN1CCN(CC(=O)O)CCN(CC(=O)NCCSCc2cc(CSC[C@@H](CO)N[*:2])cc(C[*:1])c2)CCN(CC(=O)O)CC1; Hexanoyl = CCCCCC(=O)*
attributeMeasured: pIC50

1. CCCCCC(=O)N[C@H]1CSCc2cc(CSCCNC(=O)CN3CCN(CC(=O)O)CCN(CC(=O)O)CCN(CC(=O)O)CC3)cc(c2)CSC[C@@H](CO)NC(=O)[C@H](Cc2ccccc2)NC(=O)[C@H](CCC(N)=O)NC(=O)[C@H]([C@@H](C)O)NC(=O)[C@@H]2CCCN2C(=O)[C@@H]2CCCN2C1=O [3BP-3767] (Hexanoyl-CPPTQF; linker 1-C via X5) : > 8.00
2. CCCCCC(=O)N[C@H]1CSCc2cc(cc(CN3CCNCC3)c2)CSC[C@@H](C(=O)O)NC(=O)[C@H](Cc2ccccc2)NC(=O)[C@H](CCC(N)=O)NC(=O)[C@H]([C@@H](C)O)NC(=O)[C@@H]2CCCN2C(=O)[C@@H]2CCCN2C1=O : 7.10 to 8.00
3. CCCC[C@H](NC(=O)CC[C@H](NC(=O)C(CNCCN)CNCCN)C(=O)O)C(=O)N[C@H]1CSCc2cccc(c2)CSC[C@@H](C(=O)O)NC(=O)[C@H](Cc2ccccc2)NC(=O)[C@H](CCC(N)=O)NC(=O)[C@H]([C@@H](C)O)NC(=O)[C@@H]2CCCN2C(=O)[C@@H]2CCCN2C1=O : < 6.00
